The values you see were collected from ChEMBL document CHEMBL1144745.

Quick list: Ki per entry.
target: UniProt:P20309; test: Displacement of [3H]N-methylscopolamine from human recombinant muscarinic M3 receptor expressed in CHO cells
Sequence (P20309 whole entry): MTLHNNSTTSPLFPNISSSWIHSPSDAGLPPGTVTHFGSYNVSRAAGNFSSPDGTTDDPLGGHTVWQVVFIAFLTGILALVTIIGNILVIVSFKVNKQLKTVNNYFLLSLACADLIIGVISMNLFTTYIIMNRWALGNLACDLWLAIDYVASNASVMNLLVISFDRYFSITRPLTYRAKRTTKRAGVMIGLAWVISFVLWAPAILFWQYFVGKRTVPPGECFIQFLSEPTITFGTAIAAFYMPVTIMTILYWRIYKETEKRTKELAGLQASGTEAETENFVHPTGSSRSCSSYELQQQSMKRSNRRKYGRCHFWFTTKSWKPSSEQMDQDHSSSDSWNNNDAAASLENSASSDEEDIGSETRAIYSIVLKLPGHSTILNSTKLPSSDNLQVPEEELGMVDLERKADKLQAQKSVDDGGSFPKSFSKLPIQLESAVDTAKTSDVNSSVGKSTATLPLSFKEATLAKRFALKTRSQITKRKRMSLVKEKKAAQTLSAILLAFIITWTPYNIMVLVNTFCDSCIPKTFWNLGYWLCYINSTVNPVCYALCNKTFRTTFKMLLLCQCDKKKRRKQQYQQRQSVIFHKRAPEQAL
Reply numerically in nM, unit not repeated.

Below, each entry is followed by its recorded Ki result.
COC1(C#CC(C#N)(c2ccccc2)c2ccccc2)CN2CCC1CC2 (configuration not stated) ... 2.51
COC(C#C[C@@]1(OC)CN2CCC1CC2)(c1ccccc1)c1ccccc1 ... 10
COC1(C#CC(C)(c2ccccc2)c2ccccc2)CN2CCC1CC2 (configuration not stated) ... 15.8
CO[C@]1(C#C[C@](O)(c2ccccc2)C2CCCCCCC2)CN2CCC1CC2 ... 0.316
CO[C@]1(C#C[C@](O)(c2ccccc2)C2CCCCCC2)CN2CCC1CC2 ... 0.316
CO[C@]1(C#C[C@@](O)(c2ccccc2)C2CCCCCC2)CN2CCC1CC2 ... 2

Continue with the compound presented below.
Any idea what Ki came out for "CO[C@]1(C#C[C@@](O)(c2ccccc2)C2CCCCCCC2)CN2CCC1CC2" on UniProt:P20309?
2.51

----------
biological target: Muscarinic acetylcholine receptor M2 (Homo sapiens, UniProt P08172); experiment: Displacement of [3H]N-methylscopolamine from human recombinant muscarinic M2 receptor expressed in CHO cells; format: cell-based
Sequence (P08172 whole entry): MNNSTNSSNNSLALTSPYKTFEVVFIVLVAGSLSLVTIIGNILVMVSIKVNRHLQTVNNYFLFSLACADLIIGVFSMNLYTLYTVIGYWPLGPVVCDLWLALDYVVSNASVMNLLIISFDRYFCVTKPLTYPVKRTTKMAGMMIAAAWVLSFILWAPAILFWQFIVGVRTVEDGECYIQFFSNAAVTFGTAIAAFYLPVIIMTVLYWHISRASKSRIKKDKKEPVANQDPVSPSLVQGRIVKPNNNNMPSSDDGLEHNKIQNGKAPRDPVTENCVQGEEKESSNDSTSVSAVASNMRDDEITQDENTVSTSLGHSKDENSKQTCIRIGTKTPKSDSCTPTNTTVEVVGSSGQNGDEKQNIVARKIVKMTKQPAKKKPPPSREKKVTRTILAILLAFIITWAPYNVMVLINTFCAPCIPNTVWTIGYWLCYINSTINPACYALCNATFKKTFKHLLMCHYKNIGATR
READOUT_NAME: log10 Ki (log10 of the value in nM)
Form field - Quantity: Ki; Unit: nM; Scale: log10

CO[C@]1(C#C[C@@](O)(c2ccccc2)C2CCCCCCC2)CN2CCC1CC2 ... 1.50
COC(C#C[C@@]1(OC)CN2CCC1CC2)(c1ccccc1)c1ccccc1 ... 2.20
COC1(C#CC(C)(c2ccccc2)c2ccccc2)CN2CCC1CC2 (configuration not stated) ... 1.60
CO[C@]1(C#C[C@@](O)(c2ccccc2)C2CCCCCC2)CN2CCC1CC2 ... 1.30
CO[C@]1(C#C[C@](O)(c2ccccc2)C2CCCCCC2)CN2CCC1CC2 ... 0.40

So what does the record say about log10 Ki for "CO[C@]1(C#C[C@](O)(c2ccccc2)C2CCCCCCC2)CN2CCC1CC2" ?
0.50

How about this compound: COC1(C#CC(C#N)(c2ccccc2)c2ccccc2)CN2CCC1CC2 (configuration not stated)
0.80
